Reference source for all entries: paper PMC9745668

Task for the reader: assign each of the following proteins its reported kcat/Km.
- Substrate: C=C(C)CCOP(=O)(O)O
- ASSAY_PROCEDURE: PK-LDH coupled assay, A340
- Type: biochemical, Methanomethylophilus alvi
- RUN_PARAMETERS: 2 mM ATP, 5 mM MgCl2, 25 mM Tris pH 7.8, 37 °C
Give bare numbers, in M⁻¹ s⁻¹.

Reference set, count: 2
IPK from Candidatus methanomethylophilus alvus (CMA) (Candidatus Methanomethylophilus alvi Mx1201; V208A) (protein) MILIKLGGSVITDKSEYHKFNKETVSRLADEIRRSGQDVMVVHGAGSFGHVIAKKYAIQDGHVDDGQIPAAARIMCDTRELSSMVVEELLAQGIPAVSVAPGSCFVMEDGKLIVDNEEPIRRLADLGIMPVMFGDVVPDRKKGFAIVSGDQCMEVLCRMFDPEKVVFVSDIDGLYTADPKTDKKARLIGEVTRKKLDEALTDITVADATGGVHSKMEAMLRMTDRNRRCYLVNGNAPNRLYSLLKGETVTCTVAKGGME
72000
IPK from Candidatus methanomethylophilus alvus (CMA) (Candidatus Methanomethylophilus alvi Mx1201; I74A/V208A) (protein) MILIKLGGSVITDKSEYHKFNKETVSRLADEIRRSGQDVMVVHGAGSFGHVIAKKYAIQDGHVDDGQIPAAARAMCDTRELSSMVVEELLAQGIPAVSVAPGSCFVMEDGKLIVDNEEPIRRLADLGIMPVMFGDVVPDRKKGFAIVSGDQCMEVLCRMFDPEKVVFVSDIDGLYTADPKTDKKARLIGEVTRKKLDEALTDITVADATGGVHSKMEAMLRMTDRNRRCYLVNGNAPNRLYSLLKGETVTCTVAKGGME
6500

IN: Given the entry IPK from Candidatus methanomethylophilus alvus (CMA) (Candidatus Methanomethylophilus alvi Mx1201; T209A) (protein) MILIKLGGSVITDKSEYHKFNKETVSRLADEIRRSGQDVMVVHGAGSFGHVIAKKYAIQDGHVDDGQIPAAARIMCDTRELSSMVVEELLAQGIPAVSVAPGSCFVMEDGKLIVDNEEPIRRLADLGIMPVMFGDVVPDRKKGFAIVSGDQCMEVLCRMFDPEKVVFVSDIDGLYTADPKTDKKARLIGEVTRKKLDEALTDITVADVAGGVHSKMEAMLRMTDRNRRCYLVNGNAPNRLYSLLKGETVTCTVAKGGME , report its measured kcat/Km.
OUT: 800
